Test system: Staphylococcus aureus
Experiment: Minimal bacterial concentration against Staphylococcus aureus was evaluated
Format: functional
Each entry below lists one item and its recorded MBC value.

Worked cases, answers included:
{"compound": "Nc1ccccc1C1c2ccc([nH]2)C(c2ccc(O[C@@H]3O[C@@H](CO)[C@@H](O)[C@H](O)[C@@H]3O)cc2)c2ccc([nH]2)C(c2ccc(O[C@@H]3O[C@@H](CO)[C@@H](O)[C@H](O)[C@@H]3O)cc2)c2ccc([nH]2)C(c2ccc(O[C@@H]3O[C@@H](CO)[C@@H](O)[C@H](O)[C@@H]3O)cc2)c2ccc1[nH]2 (stereo partly drawn)", "MBC": "> 1.5 µg/mL"}
{"compound": "Cc1ccc(C2c3ccc([nH]3)C(c3ccc(C)cc3)c3ccc([nH]3)C(c3ccc(N)cc3)c3ccc([nH]3)C(c3ccc(C)cc3)c3ccc2[nH]3)cc1 (stereo not drawn)", "MBC": "> 3 µg/mL"}

Now take the following compound into account.
Task: Give the value of MBC reported for the following: CC(N)C(=O)Nc1ccc(C2c3ccc([nH]3)C(c3ccc(NC(=O)C(C)N)cc3)c3ccc([nH]3)C(c3ccc(O[C@@H]4O[C@@H](CO)[C@@H](O)[C@H](O)[C@@H]4O)cc3)c3ccc([nH]3)C(c3ccc(NC(=O)C(C)N)cc3)c3ccc2[nH]3)cc1 (stereo partly drawn)
Output: > 1.5 µg/mL

----------
Test system: Staphylococcus aureus
Assay: Minimal bacterial concentration against Staphylococcus aureus was evaluated
Assay type: functional
Each entry below lists one item and its recorded MBC value.

{"molecule": "Nc1ccc(C2c3ccc([nH]3)C(c3ccc(N)cc3)c3ccc([nH]3)C(c3ccc(O[C@@H]4O[C@@H](CO)[C@@H](O)[C@H](O)[C@@H]4O)cc3)c3ccc([nH]3)C(c3ccc(N)cc3)c3ccc2[nH]3)cc1 (some centres not stated)", "MBC": "> 1.5 µg/mL"}

Now take the following molecule into account.
Task: Give the value of MBC reported for the following: CC(N)C(=O)Nc1ccc(C2c3ccc([nH]3)C(c3ccc(O[C@@H]4O[C@@H](CO)[C@@H](O)[C@H](O)[C@@H]4O)cc3)c3ccc([nH]3)C(c3ccc(O[C@@H]4O[C@@H](CO)[C@@H](O)[C@H](O)[C@@H]4O)cc3)c3ccc([nH]3)C(c3ccc(O[C@@H]4O[C@@H](CO)[C@@H](O)[C@H](O)[C@@H]4O)cc3)c3ccc2[nH]3)cc1 (some centres not stated)
Output: > 1.5 µg/mL

----------
System: Staphylococcus aureus
Test: Minimal bacterial concentration against Staphylococcus aureus was evaluated; Range = 1-1.5 ug/mL
Assay type: functional
readout-kind: MBC (µg/mL)
The response must be a number in µg/mL with no trailing unit.

{"compound": "CC(N)C(=O)Nc1ccc(C2c3ccc([nH]3)C(c3ccc(NC(=O)C(C)N)cc3)c3ccc([nH]3)C(c3ccc(O[C@@H]4O[C@@H](CO)[C@@H](O)[C@H](O)[C@@H]4O)cc3)c3ccc([nH]3)C(c3ccc(O[C@@H]4O[C@@H](CO)[C@@H](O)[C@H](O)[C@@H]4O)cc3)c3ccc2[nH]3)cc1 (stereo partly drawn)", "MBC (µg/mL)": 1.5}
{"compound": "Nc1ccc(C2c3ccc([nH]3)C(c3ccc(O[C@@H]4O[C@@H](CO)[C@@H](O)[C@H](O)[C@@H]4O)cc3)c3ccc([nH]3)C(c3ccc(O[C@@H]4O[C@@H](CO)[C@@H](O)[C@H](O)[C@@H]4O)cc3)c3ccc([nH]3)C(c3ccc(O[C@@H]4O[C@@H](CO)[C@@H](O)[C@H](O)[C@@H]4O)cc3)c3ccc2[nH]3)cc1 (stereo partly drawn)", "MBC (µg/mL)": 1.5}

Now take the following compound into account.
Task: Give the value of MBC reported for the following: N=C(N)NCCCC(NC(=O)CCCCOc1ccccc1C1c2ccc([nH]2)C(c2ccc(O[C@@H]3O[C@@H](CO)[C@@H](O)[C@H](O)[C@@H]3O)cc2)c2ccc([nH]2)C(c2ccc(O[C@@H]3O[C@@H](CO)[C@@H](O)[C@H](O)[C@@H]3O)cc2)c2ccc([nH]2)C(c2ccc(O[C@@H]3O[C@@H](CO)[C@@H](O)[C@H](O)[C@@H]3O)cc2)c2ccc1[nH]2)C(=O)NCC(=O)NC(CC(=O)O)C(=O)O (stereo partly drawn)
Output: 1.5
